Some compounds, each annotated with its measured kinase still bound, per cent of control.
Target: ULK2 (human)
Test: KINOMEscan competition binding
Conditions: compound 10.0 µM

Here's what some known entries look like.
COc1cc(N2CCN(C)CC2)ccc1Nc1ncc2c(n1)N(C1CCCC1)C(C)CC(=O)N2C (stereo not drawn)
1.3%
N=C1NC(=O)/C(=C/c2ccc(-c3ccccc3O)o2)S1
12%

Now look at this entry.
Exercise: Dear colleague, please send me the reported kinase still bound, per cent of control for CN1C(=O)[C@H]2CCC[C@H]2N(C2CCCC2)c2nc(Nc3ccc(C(N)=O)cc3)ncc21 when you can.
Key: 17%

---

Target: ACVR2B (human)
Assay: KINOMEscan competition binding
Settings: compound 10.0 µM
Some molecules, each annotated with its measured kinase still bound, per cent of control.
All answers are understood in %, so give the number only.

N=C1NC(=O)/C(=C/c2ccc(-c3ccccc3O)o2)S1
15

Exercise: Dear colleague, please send me the reported kinase still bound, per cent of control for N=C1NC(=O)/C(=C/c2ccc(-c3ccc(Cl)cc3)o2)S1 when you can.
Key: 25

Exercise: Dear colleague, please send me the reported kinase still bound, per cent of control for N=C1NC(=O)/C(=C/c2ccc(-c3cncc4ccccc34)o2)S1 when you can.
Key: 7.6

Ref: the kinase profiling compilation of Christmann-Franck et al. (2016)
